System: SR leukemia
Test: NCI tumour cell line growth inhibition, 48 h
Where a SMILES comes first, the peptide text is derived from it. The star is where a group is joined. Cbz = O=C(OCc1ccccc1)*; Boc = CC(C)(C)OC(=O)*; OSu = O=C1CCC(=O)N1O*; Bn = c1ccc(C*)cc1
parameter: TGI

[
  {
    "compound": "C(=C\\c1c2oc(-c3ccccc3)cc(-c3ccccc3)c-2c2ccccc12)/C=C1\\c2ccccc2-c2c(-c3ccccc3)cc(-c3ccccc3)[o+]c21",
    "parameter": "TGI",
    "reportedMeasurement": "> 100 µM"
  }
]

Prompt line: Entry under review: CCOC(=O)C1CCC(=O)N1C(=O)c1ccc(Cl)cc1 (stereo not given) . Reported TGI?
Response line: > 100 µM

Prompt line: Entry under review: CC(C)(C)OC(=O)NC(Cc1ccc(OCc2ccccc2)cc1)C(=O)NC(CCCCNC(=O)OCc1ccccc1)C(=O)NC(CCCCNC(=O)OCc1ccccc1)C(=O)ON1C(=O)CCC1=O (stereo not given) (Boc-Tyr(Bn)-Lys(Cbz)-Lys(Cbz)-OSu; configuration not given here) . Reported TGI?
Response line: > 100 µM

Prompt line: Entry under review: NC(N)=N/N=C/c1c(-c2ccncc2)nc2sc(Cl)cn12 . Reported TGI?
Response line: 4.97 µM

Prompt line: Entry under review: OCC#Cc1ccccc1C#Cc1ccc(C#Cc2ccccc2)cc1 . Reported TGI?
Response line: 44.8 µM

Prompt line: Entry under review: CCCCC[C@@H](C/C=C/CCC(=O)NC/C(=C/Cl)[C@H]1C(=O)C(C)(C)C(=O)[C@@H](C)[C@@]1(C)O)OC . Reported TGI?
Response line: 41.3 µM

Prompt line: Entry under review: COc1cc2c(cc1OC)C(=O)/C(=C/c1ccc(N(C)C)cc1)CC2 . Reported TGI?
Response line: > 10 µM

Every entry's value here was drawn from PubChem BioAssay (NCI).
